Target: hGcgR (Homo sapiens)
Sequence (P47871 26-477): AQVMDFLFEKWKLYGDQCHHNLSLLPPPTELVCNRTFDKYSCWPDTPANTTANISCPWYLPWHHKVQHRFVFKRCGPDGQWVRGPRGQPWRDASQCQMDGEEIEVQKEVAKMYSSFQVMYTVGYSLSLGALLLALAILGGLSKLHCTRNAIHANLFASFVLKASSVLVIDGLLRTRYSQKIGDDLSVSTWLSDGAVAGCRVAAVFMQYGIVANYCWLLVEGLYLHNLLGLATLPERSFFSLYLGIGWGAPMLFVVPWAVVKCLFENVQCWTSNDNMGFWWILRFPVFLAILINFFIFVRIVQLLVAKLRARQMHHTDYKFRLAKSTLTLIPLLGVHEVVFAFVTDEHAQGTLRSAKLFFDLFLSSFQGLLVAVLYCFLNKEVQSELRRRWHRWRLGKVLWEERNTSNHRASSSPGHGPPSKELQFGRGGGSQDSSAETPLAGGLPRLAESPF
Test: Functional cAMP activation in the presence of 0.1% casein (no HSA)
Assay type: cell-based
Settings: in the presence of 0.1% casein (no HSA); geometric mean; read-out: Relative cAMP EC50, hGcgR
Starred links: 1 amine or outer side, 2 acyl side, 3 side chain; linkers in the order of their positions; H or OH if unused. Non-standard residues stand in square brackets, D forms with d. Groups on a side chain read outwards from the residue. No end group written: not given here. *: point of attachment. C20 diacid = O=C(O)CCCCCCCCCCCCCCCCCCC(=O)*; C18 diacid = O=C(O)CCCCCCCCCCCCCCCCC(=O)*; αMePhe(2-F) = C[C@](N)(Cc1ccccc1F)C(=O)O; γGlu = O=C(O)[C@H](CCC(=O)[*:2])N[*:1]; αMe4Pal = C[C@](N)(Cc1ccncc1)C(=O)O; αMeY = C[C@](N)(Cc1ccc(O)cc1)C(=O)O; 4Pal = N[C@@H](Cc1ccncc1)C(=O)O; αMeL = CC(C)C[C@](C)(N)C(=O)O; αMeS = C[C@](N)(CO)C(=O)O; Iva = CC[C@](C)(N)C(=O)O; Orn = NCCC[C@H](N)C(=O)O; AEEA = NCCOCCOCC(=O)O; Aib = CC(C)(N)C(=O)O
Label key: y means EC50 under 5 nM; n means EC50 of 5 nM or more.

SUBSTANCE: H-Y[Aib]QGTFTSDFS[Orn][αMeL]LDKK([AEEA-γGlu-C18 diacid])AQ[Aib]AFIEYLLE[Aib]GPSSGAPPPSGS-NH2 [Example 74]
CLASSIFICATION: y
//
SUBSTANCE: H-Y[Aib]QGTFTSDFS[Orn][αMeL]LDKK([AEEA-γGlu-C18 diacid])AQ[Aib]AFIEYLLEGGESSGAPPPSGS-NH2 [Example 145]
CLASSIFICATION: y
//
SUBSTANCE: H-Y[Aib]QGTFTSD[4Pal]S[Orn][αMeL]LD[Orn]K([γGlu-γGlu-C18 diacid])AQ[αMe4Pal]AFIEYLLAGGPSSGAPPPSGSEE-NH2 [Example 1068]
CLASSIFICATION: y
//
SUBSTANCE: H-Y[Aib]QGT[αMePhe(2-F)]TSDYSKLLDKQAQK([AEEA-γGlu-C20 diacid])QFIEYLIEGGPSSGEPPPSEG-NH2 [Example 309]
CLASSIFICATION: n
//
SUBSTANCE: Y[Aib]QGTFTSD[4Pal][αMeS]Q[αMeL]LD[Orn]K([dE-γGlu-C18 diacid])AQ[Iva]QFIQ[αMeY]LLE[Aib]GPSSGAPPPSGGGE-NH2 [Example 1139]
CLASSIFICATION: n
//
SUBSTANCE: H-Y[Aib]QGTFTSD[4Pal][αMeS]I[αMeL]LD[Orn]K([dE-γGlu-C18 diacid])AQ[αMe4Pal]QFIQ[αMeY]LIE[Aib]GPSSGAPPPSGGGE-NH2 [Example 1136]
CLASSIFICATION: y
//
SUBSTANCE: H-Y[Aib]QGTFTSDFS[Orn][αMeL]LDKK([AEEA-γGlu-C20 diacid])AQ[Aib]AFIEYLLAGGPSSGEPPPSGS-NH2 [Example 92]
CLASSIFICATION: n
//
SUBSTANCE: H-Y[Aib]QGTFTSD[4Pal]SK[αMeL]LDKK([AEEA-γGlu-C18 diacid])AQ[Aib]AFIE[αMe4Pal]LIE[Aib]GPSSGAPPPSGS-NH2 [Example 914]
CLASSIFICATION: n
//
SUBSTANCE: H-Y[Aib]QGT[αMePhe(2-F)]TSD[4Pal][αMeS]I[αMeL]LD[Orn]K([AEEA-γGlu-C18 diacid])AQ[αMe4Pal]EFI[dE][αMeY]LIEGGPPS[Aib][Orn]PPP[Orn]GS-NH2 [Example 1189]
CLASSIFICATION: y
//
SUBSTANCE: H-Y[Aib]QGTFTSDFS[Orn][αMeL]LDKK([AEEA-γGlu-C18 diacid])AQ[Aib]AFIEYLLAGGPSSGEPPPEGS-NH2 [Example 152]
CLASSIFICATION: n
//
SUBSTANCE: H-Y[Aib]QGTFTSDFSK[αMeL]LDKK([AEEA-γGlu-C18 diacid])AQ[Aib]AFIEYLLEGGPSSGAPPPSGS-NH2 [Example 141]
CLASSIFICATION: y

* * *

The entries below are paired with their reported pEC50.
Molecular target: hGcgR (Homo sapiens)
Test: Functional cAMP activation in the presence of 0.1% casein (no HSA);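 also: intracellular cAMP rise after 30 min at 37 °C, read by HTRF against a cAMP standard curve, scaled from buffer only (0%) to maximal control ligand response (100%)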
Format: cell-based
Conditions: read-out: Relative cAMP EC50, hGcgR
pEC50: −log10 of the molar value. Starred links: 1 amine or outer side, 2 acyl side, 3 side chain; linkers in the order of their positions; H or OH if unused. Non-standard residues stand in square brackets, D forms with d. Groups on a side chain read outwards from the residue. *: point of attachment. C18 diacid = O=C(O)CCCCCCCCCCCCCCCCC(=O)*; αMePhe(2-F) = C[C@](N)(Cc1ccccc1F)C(=O)O; γGlu = O=C(O)[C@H](CCC(=O)[*:2])N[*:1]; αMe4Pal = C[C@](N)(Cc1ccncc1)C(=O)O; αMeY = C[C@](N)(Cc1ccc(O)cc1)C(=O)O; 4Pal = N[C@@H](Cc1ccncc1)C(=O)O; αMeL = CC(C)C[C@](C)(N)C(=O)O; αMeS = C[C@](N)(CO)C(=O)O; Orn = NCCC[C@H](N)C(=O)O; AEEA = NCCOCCOCC(=O)O; Aib = CC(C)(N)C(=O)O
RESULT TYPE: pEC50

SUBSTANCE: H-Y[Aib]QGT[αMePhe(2-F)]TSD[4Pal]SI[αMeL]LD[Orn]K([γGlu-γGlu-C18 diacid])AQ[αMe4Pal][Orn]FI[dE][αMeY]LIEGGPSSGEPPPEGTGE-NH2 [Example 688]
EXPERIMENTAL TARGET: hGcgR (Homo sapiens)
RESULT TYPE: pEC50
ENDPOINT VALUE: 8.69

SUBSTANCE: H-Y[Aib]QGT[αMePhe(2-F)]TSD[4Pal][αMeS]I[αMeL]LD[Orn]K([AEEA-AEEA-γGlu-C18 diacid])AQ[Aib][Orn]FIEYLIEGGPSSGAPEPSEG-NH2 [Example 492]
EXPERIMENTAL TARGET: hGcgR (Homo sapiens)
RESULT TYPE: pEC50
ENDPOINT VALUE: 8.87

SUBSTANCE: H-Y[Aib]QGT[αMePhe(2-F)]TSD[4Pal]SILLDKK([γGlu-γGlu-C18 diacid])AQ[Aib]AFIE[4Pal]LEEGGPSSGAPPPSGTE-NH2 [Example 550]
EXPERIMENTAL TARGET: hGcgR (Homo sapiens)
RESULT TYPE: pEC50
ENDPOINT VALUE: 7.93

SUBSTANCE: H-Y[Aib]QGT[αMePhe(2-F)]TSD[4Pal]SI[αMeL]LD[Orn]K([AEEA-γGlu-C18 diacid])AQ[αMe4Pal][Orn]FI[dE][αMeY]LIEGGPSSGEPPPSGS-NH2 [Example 706]
EXPERIMENTAL TARGET: hGcgR (Homo sapiens)
RESULT TYPE: pEC50
ENDPOINT VALUE: 8.66

SUBSTANCE: H-Y[Aib]QGT[αMePhe(2-F)]TSDYSI[αMeL]LD[Orn]K([AEEA-γGlu-C18 diacid])AQ[Aib]AFI[dE]YLLEGGPSSGAPPPSEG-NH2 [Example 404]
EXPERIMENTAL TARGET: hGcgR (Homo sapiens)
RESULT TYPE: pEC50
ENDPOINT VALUE: 8.39

* * *

Biological target: hGLP-1R (Homo sapiens, UniProt P43220)
Sequence (P43220 24-463): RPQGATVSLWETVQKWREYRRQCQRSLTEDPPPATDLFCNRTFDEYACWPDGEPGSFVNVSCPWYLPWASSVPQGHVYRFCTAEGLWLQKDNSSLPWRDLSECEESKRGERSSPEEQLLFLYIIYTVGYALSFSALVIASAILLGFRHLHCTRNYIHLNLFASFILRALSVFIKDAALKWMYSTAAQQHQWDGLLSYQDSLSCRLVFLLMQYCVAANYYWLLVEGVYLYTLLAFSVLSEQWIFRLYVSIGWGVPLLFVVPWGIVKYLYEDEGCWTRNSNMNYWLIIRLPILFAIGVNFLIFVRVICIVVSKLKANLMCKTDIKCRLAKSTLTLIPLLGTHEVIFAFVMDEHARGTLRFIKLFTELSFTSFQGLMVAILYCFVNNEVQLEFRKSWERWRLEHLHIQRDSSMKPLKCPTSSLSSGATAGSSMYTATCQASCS
Test: Functional cAMP activation in the presence of 0.1% casein (no HSA);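 as to Relative cAMP EC50, hGLP-1R: intracellular cAMP rise after 30 min at 37 °C read by HTRF, normalized between buffer only (0%) and maximal control ligand (100%), four-parameter variable-slope fit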
Type: cell-based
Conditions: read-out: Relative cAMP EC50, hGLP-1R
Starred links: 1 amine or outer side, 2 acyl side, 3 side chain; linkers in the order of their positions; H or OH if unused. Non-standard residues stand in square brackets, D forms with d. Groups on a side chain read outwards from the residue. *: point of attachment. C18 diacid = O=C(O)CCCCCCCCCCCCCCCCC(=O)*; αMePhe(2-F) = C[C@](N)(Cc1ccccc1F)C(=O)O; γGlu = O=C(O)[C@H](CCC(=O)[*:2])N[*:1]; αMe4Pal = C[C@](N)(Cc1ccncc1)C(=O)O; αMeY = C[C@](N)(Cc1ccc(O)cc1)C(=O)O; 4Pal = N[C@@H](Cc1ccncc1)C(=O)O; Aad = N[C@@H](CCCC(=O)O)C(=O)O; αMeL = CC(C)C[C@](C)(N)C(=O)O; αMeS = C[C@](N)(CO)C(=O)O; Orn = NCCC[C@H](N)C(=O)O; AEEA = NCCOCCOCC(=O)O; Aib = CC(C)(N)C(=O)O
# label = bin(measured EC50), where bins are lo: < 0.3 nM; mid: ≥ 0.3 nM and < 0.9 nM; hi: ≥ 0.9 nM

SUBSTANCE: H-Y[Aib]QGT[αMePhe(2-F)]TSD[4Pal]SI[αMeL]LD[Orn]K([AEEA-γGlu-C18 diacid])AQ[αMe4Pal][Orn]FI[dE][αMeY]LIEGGPSSGEPPPEAE-NH2 [Example 676]
CLASSIFICATION: lo

SUBSTANCE: H-Y[Aib]QGT[αMePhe(2-F)]TSD[4Pal]SI[αMeL]LD[Orn]K([γGlu-γGlu-C18 diacid])AQ[αMe4Pal][Orn]FI[dE][αMeY]LIEGGPSSGEPPPEEG-NH2 [Example 681]
CLASSIFICATION: lo

SUBSTANCE: H-Y[Aib]QGT[αMePhe(2-F)]TSD[4Pal][αMeS]I[αMeL]LD[Orn]K([γGlu-γGlu-C18 diacid])AQ[Aib]NFI[dE][αMeY]LIEGGPSSGEPEPSEG-NH2 [Example 473]
CLASSIFICATION: lo

SUBSTANCE: H-Y[Aib]QGT[αMePhe(2-F)]TSD[4Pal]SI[αMeL]LDKK([γGlu-γGlu-C18 diacid])AQ[Aib]AFIEYLEEGGPSSGEPPPSGTGE-NH2 [Example 624]
CLASSIFICATION: hi

SUBSTANCE: H-Y[Aib]QGT[αMePhe(2-F)]TSD[4Pal]SILLDKK([γGlu-γGlu-C18 diacid])AQ[Aib]AFIEYLEEGGPSSGAPPPSGAGE-NH2 [Example 620]
CLASSIFICATION: hi

SUBSTANCE: H-Y[Aib]QGT[αMePhe(2-F)]TSD[4Pal][αMeS]ILLD[Orn]K([γGlu-γGlu-C18 diacid])AQ[Aib][Orn]FI[dE]YLIEGGPSSGEPPPEGSEE-NH2 [Example 603]
CLASSIFICATION: mid

SUBSTANCE: H-Y[Aib]QGT[αMePhe(2-F)]TSD[4Pal][αMeS]I[αMeL]LD[Orn]K([γGlu-γGlu-C18 diacid])AQ[Aib][Orn]FI[dE][αMeY]LSEGGPSSGEPPPSGTGE-NH2 [Example 518]
CLASSIFICATION: mid

SUBSTANCE: H-Y[Aib]QGT[αMePhe(2-F)]TSD[4Pal]SILLDKK([AEEA-γGlu-C18 diacid])AQ[Aib]AFIEYL[Aad]EGGPSSGAPPPSGTGE-NH2 [Example 663]
CLASSIFICATION: hi

SUBSTANCE: H-Y[Aib]QGT[αMePhe(2-F)]TSD[4Pal][αMeS]I[αMeL]LD[Orn]K([AEEA-γGlu-C18 diacid])AA[Aib]EFI[dE][αMeY]LIEGGPSSGAPPPSGTEE-NH2 [Example 725]
CLASSIFICATION: lo

Each recorded value in this set is attributed to patent US20240270821A1.
